# System: SNB-19 CNS
# experiment: NCI-60 one-dose screen, 48 h
# conditionsUsed: 10 µM unless noted
The panel holds about 83,000 compounds, 20% with a hit somewhere; the sample as a whole holds those more often. Activity calls are given as the source filed them. Rule for the calls: active = growth percent below 10; inactive = the rest.
# valid calls are yes (1) = active, no (0) = inactive; nothing else

Observe how each entry below is paired with its result.
> print(dat)
                                   molecule  classname
1   COc1cc2nc(N3CCCC3)nc(NCc3ccccc3)c2cc1OC     no (0)
2  N#Cc1c(N)n(CCNC(=O)c2ccccc2)c2nc3ccccc3nc12     no (0)
3  O=C(/C=C/c1cccc([N+](=O)[O-])c1)c1ccc(O)c(CN2CCN(c3cc4c(cc3F)c(=O)c(C(=O)O)cn4C3CC3)CC2)c1     no (0)
4   CC(=O)c1cc2c(N)c(C(=O)Nc3ccccc3)sc2nc1C     no (0)

# input Hey, what did the test say about COc1ccc(CN2c3ccccc3Sc3ccccc32)cc1O ?
# output no (0)

# input Hey, what did the test say about COc1cc(CNc2oc(-c3ccccc3)c(-c3ccccc3)c2C#N)cc(CN2CCN(C)CC2)c1O ?
# output no (0)

# input Hey, what did the test say about O=C(CCN1C(=O)/C(=C/c2ccc(Cl)cc2)SC1=S)NCCCN1CCOCC1 ?
# output no (0)

# input Hey, what did the test say about Cc1cc(C)c2nc3nc(C)cc(C)c3c(N)c2c1 ?
# output no (0)

# input Hey, what did the test say about COc1cc(/C=C/c2cc(/C=C/c3ccc(O)c(OC)c3)n(-c3c(Cl)cccc3Cl)c(=O)n2)ccc1O ?
# output no (0)

# input Hey, what did the test say about CCOc1cc2c(cc1OCC)C(c1cc(OC)c(O)cc1Cl)NCC2 (stereo unspecified) ?
# output no (0)

# input Hey, what did the test say about O=C(O)c1c(=O)cccc2ssc12 ?
# output yes (1)
